assay: Metabolic stability assay; assay type: in vitro ADME, human; conditions: human, microsomes
List of Clint values.
Your answer should be a plain number; it is taken to be in µl/min/mg protein.

Example entries and their recorded answers appear below.
{"molecule": "CC(C)CCOC(=O)[C@H](COC(=O)C(C)C)NP(=O)(OC[C@H]1O[C@@H](n2ccc(=O)[nH]c2=O)[C@](C)(O)[C@@H]1O)Oc1ccccc1 (stereo partly shown) [31h]", "Clint, µl/min/mg protein": 763.70}
{"molecule": "CCCCCOC(=O)[C@H](COCc1ccccc1)NP(=O)(OC[C@H]1O[C@@H](n2ccc(=O)[nH]c2=O)[C@](C)(O)[C@@H]1O)Oc1ccccc1 (stereo partly shown) [31d]", "Clint, µl/min/mg protein": 496.80}
{"molecule": "CC(C)CCOC(=O)CC[C@H](NP(=O)(OC[C@H]1O[C@@H](n2ccc(=O)[nH]c2=O)[C@](C)(O)[C@@H]1O)Oc1ccccc1)C(=O)OCCC(C)C (stereo partly shown) [31b]", "Clint, µl/min/mg protein": 844.60}

Then there is this molecule:
-- ask Using the record for CC(C)CCOC(=O)[C@@H](NP(=O)(OC[C@H]1O[C@@H](n2ccc(=O)[nH]c2=O)[C@](C)(O)[C@@H]1O)Oc1ccccc1)[C@@H](C)OCc1ccccc1 (stereo partly shown) [31i] , state its measured Clint.
-- reply 699.00

====

assay: Cytotoxicity in secondary assay; conditions: human
parameter measured: CC50

-- ask Using the record for CC(C)OC(=O)[C@H](C)N[P@](=O)(OC[C@H]1O[C@@H](n2ccc(=O)[nH]c2=O)[C@](C)(F)[C@@H]1O)Oc1ccccc1 [Sofosbuvir, reference compound] , state its measured CC50.
-- reply > 5 µM

====

test system: cell line ET (luc-ubi-neo/ET), Huh7 human hepatoma cell line; conditions: concentration decreasing cell viability by 50%, 72 hrs, CytoTox-ONE
parameter measured: CC50

-- ask Provide measured CC50 on cell line ET (luc-ubi-neo/ET), Huh7 human hepatoma cell line for CC(C)CCOC(=O)[C@H](Cc1ccc(OC(=O)C(C)C)cc1)NP(=O)(OCC1OC(n2ccc(=O)[nH]c2=O)C(C)(O)C1O)Oc1ccccc1 (stereo partly shown) [31k] please.
-- reply > 20 µM

====

List of CC50 values.
test system: cell line ET (luc-ubi-neo/ET), Huh7 human hepatoma cell line
Your answer should be a plain number; it is taken to be in µM.

{"compound": "CCCCCOC(=O)[C@H](COC(=O)C(C)C)NP(=O)(OC[C@H]1O[C@@H](n2ccc(=O)[nH]c2=O)[C@](C)(O)[C@@H]1O)Oc1ccccc1 (some centres unmarked) [31g]", "parameter measured": "CC50", "test value": 6.79}

-- ask Provide measured CC50 on cell line ET (luc-ubi-neo/ET), Huh7 human hepatoma cell line for CCCCCOC(=O)[C@H](COCc1ccccc1)NP(=O)(OC[C@H]1O[C@@H](n2ccc(=O)[nH]c2=O)[C@](C)(O)[C@@H]1O)Oc1ccccc1 (some centres unmarked) [31d] please.
-- reply 5.89

-- ask Provide measured CC50 on cell line ET (luc-ubi-neo/ET), Huh7 human hepatoma cell line for CC(C)CCOC(=O)[C@H](COCc1ccccc1)NP(=O)(OC[C@H]1O[C@@H](n2ccc(=O)[nH]c2=O)[C@](C)(O)[C@@H]1O)Oc1ccccc1 (some centres unmarked) [31e] please.
-- reply 8

-- ask Provide measured CC50 on cell line ET (luc-ubi-neo/ET), Huh7 human hepatoma cell line for CC(C)CCOC(=O)[C@H](COC(=O)C(C)C)NP(=O)(OC[C@H]1O[C@@H](n2ccc(=O)[nH]c2=O)[C@](C)(O)[C@@H]1O)Oc1ccccc1 (some centres unmarked) [31h] please.
-- reply 7.51

====

assay: Metabolic stability assay; assay type: in vitro ADME, human; settings: human, microsomes
List of T1/2 values.
Your answer should be a plain number; it is taken to be in min.

-- ask Using the record for CC(C)CCOC(=O)[C@@H](NP(=O)(OC[C@H]1O[C@@H](n2ccc(=O)[nH]c2=O)[C@](C)(O)[C@@H]1O)Oc1ccccc1)[C@@H](C)OCc1ccccc1 (stereo partly shown) [31i] , state its measured T1/2.
-- reply 10

-- ask Using the record for CC(C)CCOC(=O)[C@H](COC(=O)C(C)C)NP(=O)(OC[C@H]1O[C@@H](n2ccc(=O)[nH]c2=O)[C@](C)(O)[C@@H]1O)Oc1ccccc1 (stereo partly shown) [31h] , state its measured T1/2.
-- reply 9

-- ask Using the record for CCCCCOC(=O)[C@H](COCc1ccccc1)NP(=O)(OC[C@H]1O[C@@H](n2ccc(=O)[nH]c2=O)[C@](C)(O)[C@@H]1O)Oc1ccccc1 (stereo partly shown) [31d] , state its measured T1/2.
-- reply 14

-- ask Using the record for CC(C)CCOC(=O)CC[C@H](NP(=O)(OC[C@H]1O[C@@H](n2ccc(=O)[nH]c2=O)[C@](C)(O)[C@@H]1O)Oc1ccccc1)C(=O)OCCC(C)C (stereo partly shown) [31b] , state its measured T1/2.
-- reply 8

====

tested on: cell line ET (luc-ubi-neo/ET), Huh7 human hepatoma cell line; test: Cytotoxicity in secondary assay; settings: cellular ribosomal RNA as cytotoxicity control
List of CC50 values.
Your answer should be a plain number; it is taken to be in µM.

{"compound": "CC(C)CCOC(=O)[C@H](COC(=O)C(C)C)NP(=O)(OC[C@H]1O[C@@H](n2ccc(=O)[nH]c2=O)[C@](C)(O)[C@@H]1O)Oc1ccccc1 (some centres unmarked) [31h]", "unit name": "µM", "test value": 5.28}
{"compound": "CC(C)CCOC(=O)[C@H](Cc1ccc(OC(=O)C(C)C)cc1)NP(=O)(OCC1OC(n2ccc(=O)[nH]c2=O)C(C)(O)C1O)Oc1ccccc1 (some centres unmarked) [31k]", "unit name": "µM", "test value": 18.4}
{"compound": "CC(C)CCOC(=O)[C@@H](NP(=O)(OC[C@H]1O[C@@H](n2ccc(=O)[nH]c2=O)[C@](C)(O)[C@@H]1O)Oc1ccccc1)[C@@H](C)OCc1ccccc1 (some centres unmarked) [31i]", "unit name": "µM", "test value": 7.27}

-- ask Using the record for CC(C)CCOC(=O)[C@H](COCc1ccccc1)NP(=O)(OC[C@H]1O[C@@H](n2ccc(=O)[nH]c2=O)[C@](C)(O)[C@@H]1O)Oc1ccccc1 (some centres unmarked) [31e] , state its measured CC50.
-- reply 4.59

-- ask Using the record for CC(C)CCOC(=O)CC[C@H](NP(=O)(OC[C@H]1O[C@@H](n2ccc(=O)[nH]c2=O)[C@](C)(O)[C@@H]1O)Oc1ccccc1)C(=O)OCCC(C)C (some centres unmarked) [31b] , state its measured CC50.
-- reply 9.98

====

assay: in vitro; settings: human
parameter measured: CC50

-- ask Using the record for CC(C)OC(=O)[C@H](C)N[P@](=O)(OC[C@H]1O[C@@H](n2ccc(=O)[nH]c2=O)[C@](C)(F)[C@@H]1O)Oc1ccccc1 [Sofosbuvir, reference compound] , state its measured CC50.
-- reply > 5 µM

====

// cell line ET (luc-ubi-neo/ET), Huh7 human hepatoma cell line CC50 records

Example entries and their recorded answers appear below.
{"compound": "COC(=O)CC[C@H](NP(=O)(OC[C@H]1O[C@@H](n2ccc(=O)[nH]c2=O)[C@](C)(O)[C@@H]1O)Oc1ccccc1)C(=O)OC (stereo partly drawn) [31a]", "CC50": "> 20 µM"}
{"compound": "CC(C)CCOC(=O)[C@@H](NP(=O)(OC[C@H]1O[C@@H](n2ccc(=O)[nH]c2=O)[C@](C)(O)[C@@H]1O)Oc1ccccc1)[C@@H](C)OC(=O)C(C)C (stereo partly drawn) [31j]", "CC50": "11.5 µM"}

Then there is this compound:
-- ask Provide measured CC50 on cell line ET (luc-ubi-neo/ET), Huh7 human hepatoma cell line for C[C@@]1(O)[C@H](O)[C@@H](CO)O[C@H]1n1ccc(=O)[nH]c1=O [2’-C-Me-uridine, reference compound] please.
-- reply > 100 µM
